These entries and their values trace back to PubChem BioAssay AID602133.

- target.or.test.system: glucose-6-phosphate dehydrogenase-6-phosphogluconolactonase (Plasmodium falciparum 3D7)
- method.description: inhibition of P. falciparum G6PD rate – biochemical, kinetic direct NADPH detection, set 2, orthogonal assay for PfG6PD antimalarial inhibitor project, SAR follow-up (AID 602133)
- condition.parameters: recombinant PfG6PD
Calls of active or inactive are those of the source. The rule behind the calls is not given here.
# valid calls are yes (1) = active, no (0) = inactive; nothing else

Q: Assay result, entry CCC(C)N(CCNC(=O)c1ccc2c(c1)NC(=O)c1ccccc1S2)C1CCCCC1 (stereo not drawn) — outcome?
Ans: yes (1)

Q: Assay result, entry CCN1CCC[C@H]1CNC(=O)c1ccc2c(c1)NC(=O)c1ccccc1S2 — outcome?
Ans: yes (1)

Q: Assay result, entry NC1CCN(C(=O)c2ccc3c(c2)NC(=O)/C(=C/c2ccccc2F)S3)C1 (stereo not drawn) — outcome?
Ans: yes (1)

Q: Assay result, entry CCN(CC)CCCC(C)Nc1ccnc2cc(Cl)ccc12 (stereo not drawn) — outcome?
Ans: yes (1)

Q: Assay result, entry CC(C)(C)OC(=O)N1CCCC1CNC(=O)c1ccc2c(c1)NC(=O)/C(=C/c1ccccc1F)S2 (stereo not drawn) — outcome?
Ans: yes (1)

Q: Assay result, entry NC1CCN(C(=O)c2ccc3c(c2)NC(=O)c2ccccc2S3)C1 (stereo not drawn) — outcome?
Ans: no (0)

Q: Assay result, entry NCCNC(=O)c1ccc2c(c1)NC(=O)c1ccccc1S2 — outcome?
Ans: no (0)

Q: Assay result, entry CCN1CCC[C@@H]1CNC(=O)c1ccc2c(c1)NC(=O)/C(=C/c1ccccc1F)S2 — outcome?
Ans: yes (1)

Q: Assay result, entry CCN1CCCC1CNC(=O)c1ccc2c(c1)NC(=O)C(Cc1ccccc1F)S2 (stereo not drawn) — outcome?
Ans: no (0)

Q: Assay result, entry CCN1CCCC1CNC(=O)c1ccc2c(c1)NC(=O)/C(=C/c1ccc3ccccc3c1)S2 (stereo not drawn) — outcome?
Ans: yes (1)

Q: Assay result, entry O=C(NCCN1CCOCC1)c1ccc2c(c1)NC(=O)c1ccccc1S2 — outcome?
Ans: no (0)

Q: Assay result, entry CCN(CC)CCNC(=O)c1ccc2c(c1)NC(=O)/C(=C/c1ccccc1F)S2 — outcome?
Ans: yes (1)

Q: Assay result, entry CN(C)c1ccccc1CNC(=O)c1ccc2c(c1)NC(=O)/C(=C/c1ccccc1F)S2 — outcome?
Ans: yes (1)

Q: Assay result, entry O=C(NCCN1CCCCC1)c1ccc2c(c1)NC(=O)c1ccccc1S2 — outcome?
Ans: yes (1)

Q: Assay result, entry CCN1CCC[C@@H]1CNC(=O)c1ccc2c(c1)NC(=O)c1ccccc1S2 — outcome?
Ans: yes (1)

Q: Assay result, entry CCN1CCC[C@H]1CNC(=O)c1ccc2c(c1)NC(=O)/C(=C/c1ccccc1F)S2 — outcome?
Ans: yes (1)

Q: Assay result, entry CCC(C)N1CCCC1CNC(=O)c1ccc2c(c1)NC(=O)c1ccccc1S2 (stereo not drawn) — outcome?
Ans: yes (1)

Q: Assay result, entry CCN1CCCC1CNC(=O)c1ccc2c(c1)NC(=O)/C(=C/c1ccc(F)cc1)S2 (stereo not drawn) — outcome?
Ans: yes (1)
